Test system: HepG2
ASSAY METHOD TEXT: Antiproliferative activity against human HepG2 cells after 48 hrs by MTT assay
Format: functional, cell-based
EXPERIMENTAL CONTEXT: HepG2, 48 h
With a cut-off of 20 µM, any IC50 strictly below it is called t; any IC50 meeting it or above is called f.

chem_smiles=CC(=O)OC[C@H]1O[C@@H](O[C@H]2CC[C@@]3(C)C(=CC[C@]4(O)[C@@H]3C[C@@H](OC(=O)/C=C/c3ccccc3)[C@@]3(C)[C@]4(O)CC[C@@]3(O)[C@H](C)OC(=O)c3cccnc3)C2)[C@H](OC(C)=O)[C@@H](OC(C)=O)[C@@H]1OC(C)=O target_or_system=HepG2 qualitative_label=f
chem_smiles=CC(=O)O[C@@H]1[C@@H](OC(C)=O)[C@H](O[C@H]2CC[C@@]3(C)C(=CC[C@]4(O)[C@@H]3C[C@@H](OC(=O)/C=C(\C)C(C)C)[C@@]3(C)[C@]4(O)CC[C@@]3(O)C(C)=O)C2)OC[C@@H]1OC(C)=O target_or_system=HepG2 qualitative_label=f
chem_smiles=CC(=O)O[C@H]1C[C@H](O[C@H]2CC[C@@]3(C)C(=CC[C@]4(O)[C@@H]3C[C@@H](OC(=O)/C=C(\C)C(C)C)[C@@]3(C)[C@]4(O)CC[C@@]3(O)C(C)=O)C2)OC[C@H]1OC(C)=O target_or_system=HepG2 qualitative_label=t
chem_smiles=CC(=O)[C@]1(O)CC[C@@]2(O)[C@]1(C)[C@H](OC(=O)c1ccc(O)cc1)C[C@@H]1[C@@]3(C)CC[C@H](O[C@@H]4O[C@@H](C)[C@H](O)[C@@H](O)[C@H]4O)CC3=CC[C@]12O target_or_system=HepG2 qualitative_label=f
chem_smiles=CC(=O)OC[C@H]1O[C@@H](O[C@H]2CC[C@@]3(C)C(=CC[C@]4(O)[C@@H]3C[C@@H](OC(=O)c3ccc(O)cc3)[C@@]3(C)[C@]4(O)CC[C@@]3(O)C(C)=O)C2)[C@H](OC(C)=O)[C@@H](OC(C)=O)[C@H]1OC(C)=O target_or_system=HepG2 qualitative_label=t
chem_smiles=CC(=O)O[C@H]1[C@@H](OC(C)=O)[C@@H](C)O[C@@H](O[C@H]2CC[C@@]3(C)C(=CC[C@]4(O)[C@@H]3C[C@@H](OC(=O)/C=C(\C)C(C)C)[C@@]3(C)[C@]4(O)CC[C@@]3(O)C(C)=O)C2)[C@@H]1OC(C)=O target_or_system=HepG2 qualitative_label=f
chem_smiles=CC(=O)OC[C@H]1O[C@@H](O[C@H]2CC[C@@]3(C)C(=CC[C@]4(O)[C@@H]3C[C@@H](OC(=O)c3ccc(O)cc3)[C@@]3(C)[C@]4(O)CC[C@@]3(O)C(C)=O)C2)[C@H](OC(C)=O)[C@@H](OC(C)=O)[C@@H]1OC(C)=O target_or_system=HepG2 qualitative_label=f

Sourced from ChEMBL document CHEMBL5143557
